B1: TPR 5TU (parent)
chain: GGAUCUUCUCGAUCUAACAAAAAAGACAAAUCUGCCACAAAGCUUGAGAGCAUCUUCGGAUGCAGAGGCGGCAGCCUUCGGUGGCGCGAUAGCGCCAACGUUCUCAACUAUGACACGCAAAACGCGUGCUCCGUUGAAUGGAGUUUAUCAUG

Variants of: B1
Experiment: polymerase ribozyme fitness, log enrichment relative to wild type (log ratio); higher = more active; in vitro selection for triplet polymerase activity
Fewer inactive variants are shown than the library holds.
Measured polymerase ribozyme fitness (log ratio) values are reported for all entries that follow.
Write no unit; give the number alone.

Below, 10 variants whose answers are already recorded.
{"mutation_name": "A41C C87U A120C", "observed_measurement": -1.53}
{"mutation_name": "G11C G46A G58A G83A", "observed_measurement": -3.26}
{"mutation_name": "C38A U55A", "observed_measurement": -0.143}
{"mutation_name": "U61A C87U G92A A106G A122U", "observed_measurement": -2.84}
{"mutation_name": "A52C U55A U56A G86C", "observed_measurement": -4.01}
{"mutation_name": "A37U G84A U102C C123G", "observed_measurement": -4.19}
{"mutation_name": "A64G C93G", "observed_measurement": -4.05}
{"mutation_name": "A37U A73G", "observed_measurement": -1.1}
{"mutation_name": "C149G", "observed_measurement": -2.78}
{"mutation_name": "G50C C93U", "observed_measurement": -4.15}

Record C18G U53A C57U G59C U61A C95G . Reported polymerase ribozyme fitness (log ratio): -3.99

Entry under test: C87U C96U C125U U144A . Its polymerase ribozyme fitness (log ratio) was -2.68
